- Tested on: RXF 393 renal
- test method notes: NCI-60 one-dose screen, 48 h (100 = growth as untreated, 0 = no growth, -100 = all killed)
- condition set: 10 µM
Compounds without any hit were thinned out: in the full panel of roughly 83,000, 20% have a hit.
// label = 1 if growth is not less than 70%, otherwise -1

Look over these answered cases.
| molecule | class label |
| --- | --- |
| S=C(Cc1ccc(-c2ccccc2)cc1)N1CCOCC1 | 1 |
| COc1cc(-c2cc(-c3ccc(C)cc3)nc3nc(N)[nH]c(=O)c23)ccc1Oc1ccnc2cc(Cl)ccc12 | 1 |
| CCCCCCCCCCCCCCCC(=O)N1CCN(C)CC1 | 1 |
| CCN(CC)CCOC(=O)c1ccc(NC(=O)Nc2cccc(Cl)c2)cc1 | 1 |

Hi, just wondering whether O=[N+]([O-])c1ccc(-c2nc(-c3ccccc3)c(-c3ccccc3)n2-c2ccccc2)cc1 shows growth of 70% or higher.
1

Hi, just wondering whether COC(=O)[C@]12CC[C@@H](C)[C@H](C)[C@@H]1C1=CC[C@@H]3[C@@]4(C)CC(=O)[C@H](O)[C@@]5(C)COC(=C45)C[C@@]3(C)[C@]1(C)CC2 shows growth of 70% or higher.
-1

Hi, just wondering whether O=C(O)CNS(=O)(=O)c1ccc(OCCOc2ccc(S(=O)(=O)NCC(=O)O)cc2)cc1 shows growth of 70% or higher.
1

Hi, just wondering whether N=C(N)c1ccc(-c2ccc(-c3cccs3)s2)nc1 shows growth of 70% or higher.
-1

Hi, just wondering whether N#CC1C=Cc2c(ccc3ccccc23)N1C(=O)c1ccccc1 (stereo not given) shows growth of 70% or higher.
-1

Hi, just wondering whether Brc1ccc(-c2cn3ccnc3c(-c3ccc(Br)cc3)n2)cc1 shows growth of 70% or higher.
-1

====

- System: NCI/ADR-RES ovarian
- test method notes: NCI-60 one-dose screen, 48 h
- condition set: 10 µM
This is part of a sample that, as a whole, favours compounds with a hit. Of some 83,000 tested, about 20% had one in any assay. Active and inactive are the calls of the source. How the source made its calls: active means growth percent below 10; inactive means the rest.
In this exercise, the only acceptable responses are active, inactive

Look over these answered cases.
| molecular string | class label |
| --- | --- |
| CC(=O)CS(C)(=O)=O | inactive |
| COC(=O)c1cnc2c(c1)Oc1ccc(Cl)cc1-c1cc(C)nn1-2 | inactive |
| CCOC(=O)c1cc2c(n1Cc1cccc(OC)c1)-c1oncc1CC2 | active |
| CCCCCCN=C(N)CCCCCCCCCCC(N)=NCCCCCC | inactive |
| COc1ccc(-c2cc(/C=C/C(=O)c3ccc(N)cc3)[nH]n2)cc1OC | inactive |
| COc1cc2nc(Sc3sc(N)nc3C)n(-c3ccc(Oc4ccccc4)cc3)c(=O)c2cc1OC | inactive |

Test call for this molecule, please: COc1cc(/C=C2\C(=O)Nc3cc(C)c(O)cc32)cc(OC)c1OC
inactive

Test call for this molecule, please: O=c1c2cccc3c(Nc4ccc(Br)cn4)ccc(c32)c2nc3ccccc3n12
inactive

Test call for this molecule, please: COc1cc2ccnc(C=O)c2cc1OC
inactive

Test call for this molecule, please: C(=C\c1nc2ccccc2s1)/c1ccc(N2CCOCC2)s1
inactive

====

- System: NCI-H460 lung
- test method notes: NCI-60 one-dose screen, 48 h (100 = growth as untreated, 0 = no growth, -100 = all killed)
- condition set: 10 µM
About 83,000 compounds went through this panel and 20% of them were active in at least one assay; those are over-represented in the sample as a whole.
property measured: growth (%)
Value expressed in %; do not type the unit.

Example cases with answers are listed next.
| compound | measured number |
| --- | --- |
| COc1ccc(-c2nc(NC(=O)CS(=O)(=O)c3ccc(F)cc3)sc2C)cc1 | 59.2 |
| Nc1nc2c(ncn2C2OC3COP(=O)(O)OC4C(COP(=O)(O)OC2C3O)OC(n2cnc3c(N)ncnc32)C4O)c(=O)[nH]1 (configuration not stated) | 108 |
| O=C(O)c1ccc(CNc2ccc(C(=O)CCl)cc2)cc1 | 103 |
| COc1ccc(S(=O)(=O)Nc2ccc(OCc3nnc(-c4ccc(Cl)cc4)o3)c(F)c2)cc1 | 59.4 |
| COc1cccc2c1O/C(=C\c1ncc([N+](=O)[O-])n1C)C2=O | -34.1 |

I would be grateful if you could share the reported growth for CCOc1ccc2c(c1)CC[C@@H]1[C@@H]2CC[C@]2(C)[C@@H](O)[C@@H](O)C[C@@H]12 .
100

I would be grateful if you could share the reported growth for N#C/C(=C/c1cc([N+](=O)[O-])ccc1Cl)C(N)=O .
110

====

- System: DU-145 prostate
- test method notes: NCI-60 one-dose screen, 48 h
- condition set: 10 µM
Compounds without any hit were thinned out: in the full panel of roughly 83,000, 20% have a hit. Calls of active or inactive are those of the source. Rule for the calls: active = growth percent below 10; inactive = the rest.
In this exercise, the only acceptable responses are active, inactive

Look over these answered cases.
| compound | class label |
| --- | --- |
| COC(=O)c1cnc2c(c1)Oc1ccccc1-c1ccnn1-2 | inactive |
| C#CCn1c(-c2cccc(OCCCCl)c2)nc2c1c(=O)n(C)c(=O)n2C | inactive |
| C(=C\c1nc2ccccc2s1)/c1ccc(N2CCOCC2)s1 | inactive |

Test call for this compound, please: Cc1ccc(/C=C2\CN(Cc3cn(CCNc4ccnc5cc(Cl)ccc45)nn3)C/C(=C\c3ccc(C)cc3)C2=O)cc1
active

Test call for this compound, please: Oc1ccc(/C=N\Nc2ccccn2)c(O)c1
inactive

Test call for this compound, please: O=S(=O)(NC1c2ccccc2Oc2ccccc21)c1cc(Cl)ccc1Cl
inactive

Test call for this compound, please: Cn1c([N+](=O)[O-])cnc1/C=C1\Oc2ccc(Br)cc2C1=O
active

Test call for this compound, please: CC(=O)n1nc(C(=O)OC(C)(C)C)c2cc(F)c(F)cc21
inactive

Test call for this compound, please: CCc1c(C)[nH]c(=O)c(C(N)=O)c1C#N
inactive

====

- System: SNB-75 CNS
- test method notes: NCI-60 one-dose screen, 48 h
- condition set: 10 µM
The panel holds about 83,000 compounds, 20% with a hit somewhere; the sample as a whole holds those more often. Activity calls are given as the source filed them. Rule for the calls: active = growth percent below 10; inactive = the rest.
In this exercise, the only acceptable responses are active, inactive

Look over these answered cases.
| compound | tested system | class label |
| --- | --- | --- |
| CNC(=O)c1cc(Oc2ccc(NC(=O)Nc3ccc(Cl)c(OC4CCCCC4)c3)c(F)c2)ccn1 | SNB-75 CNS | inactive |
| Nc1ccc(C2=CC(c3ccc(Cl)cc3)N3C=CSC3=N2)cc1 (stereo not drawn) | SNB-75 CNS | active |
| CC(C)OP(=O)(O)c1ncc(-c2ccc(C(F)(F)F)cc2)c(NC2CCCCCC2)n1 | SNB-75 CNS | inactive |

Test call for this compound, please: CCCN(CCC)CCCNC(=O)c1cc2c(-c3ccc(OC)c(OC)c3)nn(C)c2s1
inactive

Test call for this compound, please: Cc1ccc2oc(=O)cc(/C(=C3/C=CC=N3)c3ccc[nH]3)c2c1
active

Test call for this compound, please: COc1cc(-c2cc(/C=C/C(C)=O)[nH]n2)cc(OC)c1OC
inactive

Test call for this compound, please: O=C1/C(=C/c2cccs2)CCC/C1=C\c1cccs1
inactive

Test call for this compound, please: COc1ccc2c(=O)cc(C(Cl)(Cl)Cl)oc2c1
active

Test call for this compound, please: COc1ccc(Cn2cc3c(c2-c2ccccc2)CC(C)(C)c2cnoc2-3)cc1
inactive

Test call for this compound, please: Fc1cc(-c2ncc(-c3cc(F)c(F)c(F)c3)c(NC3CCCCCC3)n2)cc(F)c1F
inactive

Test call for this compound, please: COc1cc(C2C(C#N)=C(c3c[nH]c4ccccc34)Nc3nc(N)[nH]c(=O)c32)cc(OC)c1OC (stereo not drawn)
inactive

Test call for this compound, please: CN1/C(=C\C(I)C(I)C2=[N+](C)c3ccccc3C2(C)C)C(C)(C)c2ccccc21 (stereo not drawn)
inactive

Test call for this compound, please: COc1ccc(-c2nc(NC(=O)CS(=O)(=O)c3ccc(F)cc3)sc2C)cc1
inactive

Test call for this compound, please: COc1cc2ccnc(C=O)c2cc1OC
inactive

Test call for this compound, please: CCOC(=O)CNC(=O)Nc1ccc(Oc2ccc(NC(=O)NCC(=O)OCC)cc2)cc1
inactive

Test call for this compound, please: OC(CNC1CCCC1)Cn1c2ccccc2c2ccccc21 (stereo not drawn)
inactive

Test call for this compound, please: O=[N+]([O-])c1ccc(-c2nc(Cl)c3c(n2)CCCC3)o1
inactive

Test call for this compound, please: Cc1ccc2c3c(cccc13)-c1ccccc1C2=O
inactive

Test call for this compound, please: CCOC(=O)Nc1ccc2c(c1)C(=O)N(CCOC)c1ccccc1O2
inactive

====

- Test system: HS 578T breast
- test method notes: NCI-60 one-dose screen, 48 h (100 = growth as untreated, 0 = no growth, -100 = all killed)
- condition set: 10 µM
This is part of a sample that, as a whole, favours compounds with a hit. Of some 83,000 tested, about 20% had one in any assay.
Recorded growth for the following molecules
Value expressed in %; do not type the unit.

I would be grateful if you could share the reported growth for Cn1cnc([N+](=O)[O-])c1Sc1nnc(-c2ccccc2)c(-c2ccccc2)n1 .
106
